- Tested on: blood-glucose concentration
- Protocol: Decrease in blood-glucose concentration in rats after oral dose (Table 1; ED30 rats Table 2)
- Type: in vivo
- Setup conditions: Rattus norvegicus, po, p.os. 4 mg/kg, 3 h
inhibition in vivo at 4 mg/kg overview
Express the result in % but write the number alone.

Solved cases below.
> print(dat)
                                chem.smiles  value.reported
1  Cc1nn(C(=O)NCCc2ccc(S(=O)(=O)NC(=O)NC3CCCCC3)cc2)c(C)c1Cl              29
2  Cc1cnn(C(=O)NCCc2ccc(S(=O)(=O)NC(=O)NC3CCCCC3)cc2)c1              32
3  CCc1cnn(C(=O)NCCc2ccc(S(=O)(=O)NC(=O)NC3CCCCC3)cc2)c1              32

// switching to the query compound
Q) What does the record list as inhibition in vivo at 4 mg/kg for CCc1c(C)nn(C(=O)NCCc2ccc(S(=O)(=O)NC(=O)NC3CCCCC3)cc2)c1C ?
A) 27

* * *

- Tested on: blood-glucose concentration
- Protocol: Decrease in blood-glucose concentration in rats after oral dose (Table 1; ED30 rats Table 2)
- Type: in vivo
- Setup conditions: Rattus norvegicus, po, p.os. 10 mg/kg, 1 h
Measured metric: inhibition in vivo at 10 mg/kg (%)
Expressed in %, but write only the number.

> print(dat)
                                   compound  unit.info  value.reported
1  CCCCc1c(C)nn(C(=O)NCCc2ccc(S(=O)(=O)NC(=O)NC3CCCCC3)cc2)c1C [compound 13]          %               0
2  CCCNC(=O)NS(=O)(=O)c1ccc(CCNC(=O)n2ccc(C)n2)cc1 [compound 22]          %              25
3  Cc1cn(C(=O)NCCc2ccc(S(=O)(=O)NC(=O)NC3CCCCC3)cc2)nc1C [compound 7]          %              37

Q) What value of inhibition in vivo at 10 mg/kg has been recorded for this entry: Cc1nn(C(=O)NCCc2ccc(S(=O)(=O)NC(=O)NC3CCCCC3)cc2)cc1Cl [compound 9]
A) 24

Q) What does the record list as inhibition in vivo at 10 mg/kg for Cc1cc(C)n(C(=O)NCCc2ccc(S(=O)(=O)NC(=O)NC3CCCCC3)cc2)n1 [compound 6] ?
A) 23

Q) I would be grateful if you could share the reported inhibition in vivo at 10 mg/kg for Cc1cnn(C(=O)NCCc2ccc(S(=O)(=O)NC(=O)NC3CCCC3)cc2)c1 [compound 17] .
A) 41

Q) I'd like to know its inhibition in vivo at 10 mg/kg. The compound in question is Cc1nn(C(=O)NCCc2ccc(S(=O)(=O)NC(=O)NC3CCCCC3)cc2)c(C)c1C [compound 10]
A) 35

Q) Entry O=C(NC1CCCCC1)NS(=O)(=O)c1ccc(CCNC(=O)n2cccn2)cc1 [compound 1] has what inhibition in vivo at 10 mg/kg?
A) 50

* * *

Catalogue of compounds with associated inhibition in vivo at 4 mg/kg
- System: blood-glucose concentration
- Protocol: Decrease in blood-glucose concentration in rats after oral dose (Table 1; ED30 rats Table 2)
- Format: in vivo
- Setup conditions: Rattus norvegicus, po, p.os. 4 mg/kg, 3 h
Write it as a number; the unit % goes unstated.

Examples from the recorded data:
> print(dat)
                                   compound  value.reported
1  O=C(NC1CCCC1)NS(=O)(=O)c1ccc(CCNC(=O)n2cccn2)cc1 [compound 15]               5
2  O=C(NC1CCCCC1)NS(=O)(=O)c1ccc(CCNC(=O)n2cccn2)cc1 [compound 1]              37
3  Cc1ccn(C(=O)NCCc2ccc(S(=O)(=O)NC(=O)NC3CCCC3)cc2)n1 [compound 16]              14
4  Cc1ccn(C(=O)NCCc2ccc(S(=O)(=O)NC(=O)NC3CCCCC3)cc2)n1 [compound 2]              45
5  CCc1nn(C(=O)NCCc2ccc(S(=O)(=O)NC(=O)NC3CCCCC3)cc2)cc1C [compound 8]              31

Q) Need inhibition in vivo at 4 mg/kg of Cc1nn(C(=O)NCCc2ccc(S(=O)(=O)NC(=O)NC3CCCCC3)cc2)c(C)c1C [compound 10] , thanks.
A) 35

Q) For the compound Cc1cc(C)n(C(=O)NCCc2ccc(S(=O)(=O)NC(=O)NC3CCCCC3)cc2)n1 [compound 6] , what inhibition in vivo at 4 mg/kg is on record?
A) 33

Q) Which inhibition in vivo at 4 mg/kg value belongs to Cc1cnn(C(=O)NCCc2ccc(S(=O)(=O)NC(=O)NC3CCCC3)cc2)c1 [compound 17] ?
A) 41
